B1: glmS ribozyme (parent)
chain: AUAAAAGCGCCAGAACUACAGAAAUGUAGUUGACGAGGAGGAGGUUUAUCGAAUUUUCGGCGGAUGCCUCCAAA

Variants of: B1
Assay: self-cleavage kobs at 10000 uM GlcN6P; higher = faster cleavage; RNA array
Conditions: with glucosamine-6-phosphate
Variants at the floor of the assay were thinned out.
readout: self-cleavage kobs at 10000 uM GlcN6P (s⁻¹)
Record the value in s⁻¹, omitting the unit from your answer.

Q. Requested field: self-cleavage kobs at 10000 uM GlcN6P. Item: AUAAAAGCGCCAGAACUACAGAAAUGUAGUUGACGAGGAGGAGGUUUCUCGAAUUUUCGGCGGAUGCCUCAAAA [A48C C71A]
A. 4.23e-05

Continuing:
Q. Requested field: self-cleavage kobs at 10000 uM GlcN6P. Item: AUAAAAGCGCCAGAACUACAGAAAUGUAGCUGACGAGGAGGAGGUUUAUCGAAUUAUCGGCGGAUGCCUCCAAA [U30C U56A]
A. 0.000263

Q. Then AUAAAAGCGCCAGAACUACAGAAAUGUAGGUGACGAGGAGGAGGUUUAUCGAAUUUUCGGCGGAUGCUUCCAAA [U30G C68U] ?
A. 0.000827

Q. Then AUAAAAGCGCCUGAACUACAGAAAUGUAGUGGACGAGGAGGAGGUUCAUCGAAUUUUCGGCGGAUGCCUCCAAA [A12U U31G U47C] ?
A. 0.000748

Q. Then AUAAAAGCGCCAGAACUACAGAAAUGUAGUUGACGAGGAGGAGGAUUAUCGAAUUUUCGGCGGAUGACUCCAAA [U45A C67A] ?
A. 0.00719

Q. Then AUAAAAGCGCUAGGACUACAGAAAUGUAGUUGACGAGGAGGAGGUUUAUCGAAUUUUCGGCGGAUGCCUCCAAA [C11U A14G] ?
A. 0.00811

Q. Then AUAAAAGCGCUAGAACUACAGAAAUGUAGUUGACGAGGAGGAGGAUUAUCGAAUUUUCGGCGGAUGCCUCCAAA [C11U U45A] ?
A. 0.002

Q. Then AUAAAAGCGCCCGAACUACAGAAAUGUAGUUGACGAGGAGGAGGUUUAUCGAAUUUUCGGCGGAUGCCUCCAAA [A12C] ?
A. 0.0393

Q. Then AUAAAAGCGCCAGAACUACAGAAAUGUAGUUCACGUAGAGGAGGUUUAUCGAAUUUUCGGAGGAUGUCUCCAAA [G32C A36U G37A C61A C67U] ?
A. 9.54e-05

Q. Then AUAAAAGCGCCAGAACUACAGAAAUGUAGUUGACGAGGAGGAGGUUUAUCGAAUUUUAGGCGGAUACCUCCAAA [C58A G66A] ?
A. 0.000228

Q. Then AUAAUAGCGCCAGAACUACAGAAAUGUAGUUGACGAGGAGGAGGUUUAUCGAAUUUUCGGCGGAUGCCUCCAAA [A5U] ?
A. 0.0129

Q. Then AUAAAAGCGCCAGAAAUACAGAAAUGUAGUUGACGAGGAGGAGGUUUAUCGGAUUUUCGGCGGAUGCCUCCAAA [C16A A52G] ?
A. 0.000118

Q. Then AUAAAAGCGCCAGAGCUACAGAAAUGUAGUCGACGAGGAGGAGGUUUAUCGAAUUUUCGGCGGAUGCCUCCAAA [A15G U31C] ?
A. 0.0123

Where do these numbers come from? They come from the supplement of paper PMC7125110.
